# target: pooled human IgG (human IgG1,2,3 and 4)
measured.parameter: Enzyme Activity Endpoint Assay (purified): Fab′2 (ng/µL)
Record the value in ng/µL, omitting the unit from your answer.

Q: Entry PRT-484 (protein) MVTSVWTKGVTPPTDFRKIVDGNIAYYHAPYKAGQGWYDITKAFDGGDNLLCGAATAGNMLHWWFDQNKDQIEAYLKEHPEKQKIIFNNQELFDLKAAIDTKDDQTNSELFNYFKEKAFPYLSTKHLGVFPDHVLDMFINGYRLSLTNHGPTPVKEGSKDKRGGIFDAVFTRGVQSKLLTSRHDLKNKTLKEISDLIKQELTEGKALALSHTYANVRINHVINLWGADFDSNGNLEAIYVTDSDTNASIGMKKYFVGVNSAGKVAISAKEIEDDNIGAQVLGLFTLSTGQDIWNQTNLEHHHHHH has what Enzyme Activity Endpoint Assay (purified): Fab′2?
Result: 143
